system: HT29 colon; assay: NCI tumour cell line growth inhibition, 48 h
Below, each of the molecules is paired with its reported TGI value.
Experimental endpoint: TGI

INSERT INTO results (molecule, recorded_value) VALUES
  ('Cc1cccc(C(C)(C)C)c1NC(=O)CCc1n[nH]c(=S)o1', '> 100 µM'),
  ('CC(C)CC(N)C(=O)O (configuration not stated)', '> 100 µM'),
  ('C=C(C)[C@@H](C(=O)OC)N1C(=O)c2ccccc2C1=O', '> 100 µM'),
  ('N#Cc1cnsc1', '> 100 µM'),
  ('CCOC(=O)[C@H]1Nc2ccc(C)cc2C2c3ccccc3CC21 (some centres not stated)', '> 100 µM'),
  ('NC1C2(CCCCCC2)NC(=O)C12CCCCCC2 (configuration not stated)', '> 100 µM'),
  ('CCOC(=O)c1c(C)n(Cc2ccc(OC)cc2)c2c1cc(O)c1[nH]c3c(c12)CCCC3', '> 100 µM'),
  ('Cc1ccc(C(=O)/C=C/c2ccccc2O)c(C)c1', '8.42 µM'),
  ('Cc1cccc2c(N)c3cccc(C(=O)NCCCNCCN)c3nc12', '16.3 µM'),
  ('CC(=O)O[C@@H]1C=C(C)[C@H](CBr)O[C@@]2(C)CC[C@H](Br)C(C)(C)[C@H]12', '> 100 µM'),
  ('O=C(/C=C/c1ccccc1Cl)c1ccccc1Cl', '41.3 µM'),
  ('CCC1c2[nH]c3ccccc3c2C[C@H]2C(=O)NC(CCC(=O)OC(C)(C)C)C(=O)N12 (some centres not stated)', '> 100 µM'),
  ('C1=C2C3=[N+](CCCC3)CC2Cc2ccsc21 (configuration not stated)', '> 100 µM'),
  ('CCOC(=O)C(=C(SC)SC)c1nn2c(=O)cc(C)nc2s1', '35.8 µM'),
  ('N#C/C(C(=S)Nc1ccccc1)=C1/NN=C2c3ccccc3C(=O)NN21', '> 100 µM'),
  ('CC[C@H](C)[C@H](NC(=O)[C@H]1CCCCN1C)C(=O)N(C)[C@H](CCc1nc(C(=O)N[C@@H](Cc2ccccc2)C[C@H](C)C(=O)OC)cs1)C(C)C', '3.06 µM'),
  ('CNC=O.[O]=[Ge].[O]=[Ge].[O]=[Ge].[O]=[Ge][OH].[O]=[Ge][OH]', '> 100 µM'),
  ('O=C1C(Br)=CC2(C=C1Br)CCN=c1c(O)c3c(c(O)c12)=NC=N3', '29.2 µM'),
  ('COc1cc2c(c(OC)c1OC)-c1ccc(SC)c(=O)cc1C(CC(=O)Oc1ccc([N+](=O)[O-])cc1)C2 (configuration not stated)', '0.099 µM'),
  ('COc1ccc(OC)c2c1C(=O)C(Cl)=C(N1CCN(CCOCCO)CC1)C2=O', '19.8 µM'),
  ('C[N+](C)(N)CCC[N+](C)(C)N', '> 100 µM'),
  ('COc1cc(Cc2cc(OC)c(OC)c(OC)c2)ccc1O', '> 100 µM');

---

system: HOP-62 NSCLC; assay: NCI tumour cell line growth inhibition, 48 h
Output Y for TGI not less than 30 µM; output N otherwise.

INSERT INTO measurements (compound, cat) VALUES
  ('O=C(C[C@@H](C(=O)NCc1cccc(C(F)(F)F)c1)N1C(=O)[C@@H](N2C(=O)OC[C@@H]2c2ccccc2)[C@H]1/C=C/c1ccccc1)NC1CCN(Cc2ccccc2)CC1', 'N'),
  ('Clc1ccc2c(NCCCCN=Cc3ccccc3)ccnc2c1', 'N'),
  ('O=C(CCCSc1nc(-c2ccc(Cl)cc2)cc(-c2ccc(Cl)cc2)n1)NO', 'N'),
  ('Cc1cccc(N2C(=O)C(Cl)=C(Cl)C2=O)c1', 'Y'),
  ('O=C1NNC(=O)C2C3c4ccccc4C(c4ccccc43)C12 (centres undefined)', 'Y'),
  ('CCOC(=O)C(Cl)(NC(=O)c1ccc(F)cc1)C(F)(F)F (centres undefined)', 'Y'),
  ('CCCCC/C=C/C/C=C/CCCCCCCC1=NC(C)(C)CN1C(C)C', 'N'),
  ('O=C(CC(=O)n1nc(-c2ccccc2)c(N=Nc2ccc(Cl)cc2)c1-c1ccccc1)Nc1cccc(Cl)c1', 'Y'),
  ('S=C1Cc2c([nH]c3ccccc23)-c2ccccc2N1', 'Y');
